# experimental target: T1, HLA-A*02:01 (human)
# T1 construct: Peptide-receptive MHC class I monomer made by UV cleavage of a UV-sensitive ligand
# procedure details: UV ligand exchange ELISA; exchange yield grade
Measured peptide exchange yield of individual entries

Reference set (3 entries):
KLGPVAVSI | > 75%
FSLEDLVRI | 20 to 50%
SLFEGIYTI | > 75%

GET /value?item= FLFDKLLLI &field=peptide exchange yield returns > 75%

Reported peptide exchange yield for FLLPKVQSIQL was 50 to 75%

peptide exchange yield measured on KLLGYDVHV = 50 to 75%

Field peptide exchange yield (entry SLADVHIEV ) reads > 75%

RLIAKEMNI yielded peptide exchange yield of > 75%

Source: patent US20180291083A1
